Reported logP values follow for various compounds
READOUT: logP

[[record]]
smiles_repr = "OCc1cc2ccccc2s1"
numeric_result = 2.08

[[record]]
smiles_repr = "COC(=O)c1cc2ccc([N+](=O)[O-])cc2s1"
numeric_result = 3.06

[[record]]
smiles_repr = "COC(=O)c1sc2c(OC)ccc(OC)c2c1N"
numeric_result = 2.97

[[record]]
smiles_repr = "OCc1sc2ccc(Cl)cc2c1Br"
numeric_result = 3.6

[[record]]
smiles_repr = "OCc1cc2cc(Cl)ccc2s1"
numeric_result = 2.71

[[record]]
smiles_repr = "COC(=O)c1cc2cc(Cl)ccc2s1"
numeric_result = 3.81

[[record]]
smiles_repr = "CN(C)N=Cc1cc2cc(Cl)ccc2s1"
numeric_result = 4.18

[[record]]
smiles_repr = "COc1ccc(OC)c2sc(C=O)cc12"
numeric_result = 2.75


* * *

Just a reminder that ties go to false (0): only logP strictly below 3 counts as true (1).

[[record]]
smiles_repr = "COC(=O)c1cc2ccccc2s1"
label_value = "false (0)"

[[record]]
smiles_repr = "CN(C)N=Cc1sc2ccc(Cl)cc2c1Br"
label_value = "false (0)"

[[record]]
smiles_repr = "COc1ccc(OC)c2sc(CO)cc12"
label_value = "true (1)"

[[record]]
smiles_repr = "O=Cc1sc2ccc(Cl)cc2c1Br"
label_value = "false (0)"

